# target-desc: Ubiquitin carboxyl-terminal hydrolase 30 (Homo sapiens, UniProt Q70CQ3)
# Sequence (Q70CQ3 whole entry): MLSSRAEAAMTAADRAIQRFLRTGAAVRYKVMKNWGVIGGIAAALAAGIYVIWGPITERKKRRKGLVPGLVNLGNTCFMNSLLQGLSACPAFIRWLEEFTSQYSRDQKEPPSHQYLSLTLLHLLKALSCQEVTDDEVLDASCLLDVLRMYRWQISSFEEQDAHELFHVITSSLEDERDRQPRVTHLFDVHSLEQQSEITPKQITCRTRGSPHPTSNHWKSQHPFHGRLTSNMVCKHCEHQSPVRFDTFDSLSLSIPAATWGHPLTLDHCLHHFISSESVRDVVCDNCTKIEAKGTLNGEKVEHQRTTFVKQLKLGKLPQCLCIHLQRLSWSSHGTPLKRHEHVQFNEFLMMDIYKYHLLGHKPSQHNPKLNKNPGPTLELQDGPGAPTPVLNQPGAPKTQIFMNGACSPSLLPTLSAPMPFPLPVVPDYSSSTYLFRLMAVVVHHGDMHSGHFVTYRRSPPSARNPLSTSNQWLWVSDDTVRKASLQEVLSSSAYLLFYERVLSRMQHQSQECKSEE
# assay-comment: A typical 8-point dilution series would be 100, 30, 10, 3, 1, 0.3, 0.1, 0.03 μM final. Reactions were performed in duplicate in black 384 well plates (small volume, Greiner 784076) in a final reaction volume of 21 μl. Either 1 μl of 50% DMSO or diluted compound was added to the plate. USP30 was diluted in reaction buffer (40 mM Tris, pH 7.5, 0.005% Tween 20, 0.5 mg/ml BSA, 5 mM beta-mercaptoethanol) to the equivalent of 0.05 μl/well and 10 μl of diluted USP30 was added to the compound. Enzyme and compound were incubated for 30 min at room temp. Reactions were initiated by the addition of 50 nM of TAMRA labelled peptide linked to ubiquitin via an iso-peptide bond as fluorescence polarisation substrate. Reactions were read immediately after addition of substrate and following a 2 h incubation at room temperature. Readings were performed on a Pherastar Plus (BMG Labtech). λ Excitation 540 nm; λ Emission 590 nm.
Reported IC50 values follow for various molecules

N#CN1CCCC1c1noc(-c2cccc(-c3cccc([N+](=O)[O-])c3)c2)n1 (configuration not stated) : < 100 nM

Attention now shifts to the item below.
Tell me IC50 reported for N#Cc1ccc(-c2cccc(-c3nc(C4CCCN4C#N)no3)c2)s1 (configuration not stated)
< 100 nM
